Measured Target: T1, mouse IL-22 (Mus musculus, UniProt Q9JJY9)
T1 sequence (Q9JJY9 34-179): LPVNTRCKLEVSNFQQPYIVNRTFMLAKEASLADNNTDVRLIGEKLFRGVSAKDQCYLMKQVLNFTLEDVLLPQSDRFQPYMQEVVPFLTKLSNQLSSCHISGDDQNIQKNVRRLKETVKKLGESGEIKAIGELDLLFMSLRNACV
Assay Remarks: SPR capture assay, affinity to mouse IL-22
Format: binding
Experimental Context: mouse IL-22, SPR
Values of ka greater than or equal to 200000 M·s map to yes; values below map to no.

# Molecule, Assigned Class
measured = [
    ("CPS02: mutant anti-IL-22 antibody binding human and mouse IL-22; light chain LC-06, heavy chain HC-08 (antibody, V domains shown) VH: QVQLVQSGAEVKKPGASVKVSCKASGYIFRSYWIHWIRQPPGKGLEWIGRIYPGTGRTYYNEKFKGRVTISADKSISTAYLQWSSLKASDTAMYYCARSYDSSVAYWGQGTLVTVSS VL: AIQLTQSPSSLSASVGDRVTITCSASSSVSYMHWYLQKPGQSPQLLIYKTRKLASGVPSRFSGSGSGTDFTFTISSLEAEDAATYYCQQWSSNPYITFGQGTKVEIKR", "no"),
    ("CPS17: mutant anti-IL-22 antibody binding human and mouse IL-22; light chain LC-04, heavy chain HC-49 (antibody, V domains shown) VH: QVQLVQSGAEVKKPGASVKVSCKASGYIFRSYWIHWIRQPPGKGLEWIGRIYPGTGNTYYNRKFKGRVTISADKSISTAYLQWSSLKASDTAMYYCARSYMYSVAYWGQGTLVTVSS VL: AIQLTQSPSSLSASVGDRVTITCSASSSVSYMHWYLQKPGQSPQLLIYETRKLASGVPSRFSGSGSGTDFTFTISSLEAEDAATYYCQQWSSNPYITFGQGTKVEIKR", "yes"),
    ("CPS04: mutant anti-IL-22 antibody binding human and mouse IL-22; light chain LC-07, heavy chain HC-09 (antibody, V domains shown) VH: QVQLVQSGAEVKKPGASVKVSCKASGYIFRSYWIHWIRQPPGKGLEWIGRIYPGTGNTYYNRKFKGRVTISADKSISTAYLQWSSLKASDTAMYYCARSYDSSVAYWGQGTLVTVSS VL: AIQLTQSPSSLSASVGDRVTITCSASSSVSYMHWYLQKPGQSPQLLIYKTSKLLSGVPSRFSGSGSGTDFTFTISSLEAEDAATYYCQQWSSNPYITFGQGTKVEIKR", "yes"),
    ("LC-E049K: one of the mutant antibodies in the CPE library, used as a control (antibody, V domains shown) VH: QVQLVQSGAEVKKPGASVKVSCKASGYIFTSYWIHWIRQPPGKGLEWIGRIYPGTGNTYYNEKFKGRVTISADKSISTAYLQWSSLKASDTAMYYCARSYDSSCAYWGQGTLVTVSS VL: AIQLTQSPSSLSASVGDRVTITCSASSSVSYMHWYLQKPGQSPQLLIYKTSKLASGVPSRFSGSGSGTDFTFTISSLEAEDAATYYCQQWSSNPYITFGQGTKVEIKR", "no"),
]
